Values were extracted from patent US20040121946A9.

Below, each entry is listed alongside its reported DR7 binding data.
Target: DRB1*0701 (DR7) (Homo sapiens, UniProt P01903+P01911, A100R/A102G/A103Q/D57E/D86V/E43K/F76Y/K127E/L162R/M171V/P40G/Q125H/Q99D/R33Q/R42Y/R54Q/S133A/S66F/T210M/V115G/Y107V/Y59L/Y89S)
Assay: HLA class II peptide binding assay, purified HLA
Details: Table XIX, DR supermotif peptides; unit not given
Number only, please.

[[record]]
structure_as_smiles = "CC(C)C[C@H](NC(=O)[C@H](CO)NC(=O)[C@H](C)NC(=O)[C@H](CC(N)=O)NC(=O)[C@@H](NC(=O)[C@@H]1CCCN1C(=O)[C@H](CC(C)C)NC(=O)[C@H](Cc1ccc(O)cc1)NC(=O)[C@@H](NC(=O)[C@H](CC(C)C)NC(=O)[C@H](CCC(=O)O)NC(=O)[C@H](CC(C)C)NC(=O)[C@@H](N)CC(N)=O)[C@@H](C)O)[C@@H](C)O)C(=O)N[C@@H](CO)C(=O)N[C@@H](Cc1ccccc1)C(=O)O"
measured_number = 0.0680


Turning now to a further compound:
So, CC(C)C[C@H](NC(=O)[C@H](C)NC(=O)[C@H](Cc1ccc(O)cc1)NC(=O)[C@H](CC(N)=O)NC(=O)[C@H](CC(=O)O)NC(=O)[C@H](CCC(=O)O)NC(=O)[C@H](Cc1ccccc1)NC(=O)[C@H](CC(C)C)NC(=O)[C@H](CCC(N)=O)NC(=O)[C@@H](N)[C@@H](C)O)C(=O)N[C@@H](C)C(=O)N[C@H](C(=O)N[C@@H](CC(C)C)C(=O)N[C@@H](CC(=O)O)C(=O)N[C@@H](CC(N)=O)C(=O)O)C(C)C ? Its DR7 binding data was 0.0160
